Molecular target: T1, hBMPR1B-His (human BMPR1B extracellular domain, residues K14 to R126, with C-terminal 9x-Histidine tag) (human, UniProt O00238 14-126)
T1 construct: Residues K14-R126 are counted on the hBMPR1B ORF (NM_001203); The IgK signal peptide of the vector is left out; also called hBMPR1B-CHis; human BMPR1B-his
T1 sequence: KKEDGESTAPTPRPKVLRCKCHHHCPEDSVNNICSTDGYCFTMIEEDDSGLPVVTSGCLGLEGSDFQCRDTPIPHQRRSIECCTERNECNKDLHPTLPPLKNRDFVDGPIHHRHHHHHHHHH
Assay: Biacore
measured parameter: Kd (nM)
Note: unit nM is implicit; provide only the numeric part.

In: What measured Kd goes with SC91.3 (murine anti-BMPR1B antibody) (antibody, V domains shown, Murine hybridoma antibody) VH: QVQLQQPGAELVKPGASVKLSCKASGYTFTSYWMQWVKQRPGQGLEWIGEIDPSDSYTLYNQKFKGKATLTVDTSSSTAYMQLSSLTSEDSAVYFCARFGYYIEYWGQGTTLTVSS VL: DVVMTQTPLSLPVSLGDQASISCRSSQSLVHSTGNTYLHWYLQKPGQSPKLLIYKVSNRFSGVPDRFSGSGSGTDFTLKISRVEAEDLGVYFCSQSTHVPFTFGSGTKLEIK ?
Out: 0.163

In: What measured Kd goes with SC91.1 (murine anti-BMPR1B antibody) (antibody, V domains shown, Murine hybridoma antibody with a kappa light chain) VH: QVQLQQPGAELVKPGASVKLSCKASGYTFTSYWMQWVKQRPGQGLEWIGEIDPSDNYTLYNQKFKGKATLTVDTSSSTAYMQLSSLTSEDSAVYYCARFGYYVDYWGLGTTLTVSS VL: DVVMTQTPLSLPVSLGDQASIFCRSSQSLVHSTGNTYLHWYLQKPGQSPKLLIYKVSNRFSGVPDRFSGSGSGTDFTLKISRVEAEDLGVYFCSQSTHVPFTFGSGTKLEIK ?
Out: 2.34

In: What measured Kd goes with SC91.9 (murine anti-BMPR1B antibody) (antibody, V domains shown, Murine hybridoma antibody) VH: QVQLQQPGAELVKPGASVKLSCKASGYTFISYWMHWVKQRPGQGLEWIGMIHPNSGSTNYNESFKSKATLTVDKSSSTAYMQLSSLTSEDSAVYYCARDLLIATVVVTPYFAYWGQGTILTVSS VL: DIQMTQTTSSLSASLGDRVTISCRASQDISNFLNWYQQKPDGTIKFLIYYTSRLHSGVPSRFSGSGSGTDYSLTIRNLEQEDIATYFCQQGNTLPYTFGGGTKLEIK ?
Out: 0.322

Data credit: patent US20190153103A1
